Target: Cystic fibrosis transmembrane conductance regulator (Homo sapiens, UniProt P13569, G551D)
Sequence (P13569 whole entry G551D): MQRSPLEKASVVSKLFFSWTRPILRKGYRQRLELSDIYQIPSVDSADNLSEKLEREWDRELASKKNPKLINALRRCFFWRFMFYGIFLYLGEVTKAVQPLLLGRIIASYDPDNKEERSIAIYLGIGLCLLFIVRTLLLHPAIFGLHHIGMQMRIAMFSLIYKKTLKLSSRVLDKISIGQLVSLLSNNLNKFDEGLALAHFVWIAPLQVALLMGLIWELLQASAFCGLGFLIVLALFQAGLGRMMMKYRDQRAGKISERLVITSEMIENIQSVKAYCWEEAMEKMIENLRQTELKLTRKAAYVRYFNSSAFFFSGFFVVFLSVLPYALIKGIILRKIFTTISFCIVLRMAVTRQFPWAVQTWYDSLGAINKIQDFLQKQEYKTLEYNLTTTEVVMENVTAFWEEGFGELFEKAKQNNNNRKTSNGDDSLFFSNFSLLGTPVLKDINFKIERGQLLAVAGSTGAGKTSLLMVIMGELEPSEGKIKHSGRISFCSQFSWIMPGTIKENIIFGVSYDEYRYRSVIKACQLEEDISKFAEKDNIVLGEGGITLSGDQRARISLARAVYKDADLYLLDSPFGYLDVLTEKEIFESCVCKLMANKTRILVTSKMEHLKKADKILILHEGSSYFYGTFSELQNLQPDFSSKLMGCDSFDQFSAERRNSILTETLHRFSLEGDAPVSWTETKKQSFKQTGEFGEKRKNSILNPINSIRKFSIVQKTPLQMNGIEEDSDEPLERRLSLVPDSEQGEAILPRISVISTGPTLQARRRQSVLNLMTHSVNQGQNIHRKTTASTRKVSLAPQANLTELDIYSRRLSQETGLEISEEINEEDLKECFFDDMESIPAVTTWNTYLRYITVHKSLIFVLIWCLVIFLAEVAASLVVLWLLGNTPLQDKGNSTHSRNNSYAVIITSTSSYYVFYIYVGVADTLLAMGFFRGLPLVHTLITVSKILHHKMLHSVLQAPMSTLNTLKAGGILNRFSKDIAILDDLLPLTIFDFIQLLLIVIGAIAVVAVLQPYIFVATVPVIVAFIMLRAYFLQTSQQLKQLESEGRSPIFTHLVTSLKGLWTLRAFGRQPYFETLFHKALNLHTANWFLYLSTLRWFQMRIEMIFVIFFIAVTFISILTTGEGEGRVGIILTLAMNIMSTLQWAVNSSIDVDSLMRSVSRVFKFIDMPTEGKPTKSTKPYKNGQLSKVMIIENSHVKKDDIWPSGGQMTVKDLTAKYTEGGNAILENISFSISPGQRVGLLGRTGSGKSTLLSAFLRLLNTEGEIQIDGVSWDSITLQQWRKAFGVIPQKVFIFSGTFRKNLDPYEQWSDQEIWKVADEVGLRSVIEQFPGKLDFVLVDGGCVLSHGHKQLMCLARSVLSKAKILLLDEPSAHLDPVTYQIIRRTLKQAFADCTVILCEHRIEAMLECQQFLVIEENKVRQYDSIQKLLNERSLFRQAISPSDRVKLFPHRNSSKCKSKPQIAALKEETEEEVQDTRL
Experiment: Potentiation of CFTR G551D mutant (unknown origin) expressed in FRT cells assessed as increase in chloride current in presence of VX-770 by voltage clamp electrophysiology recording
Type: cell-based
pEC50: −log10 of the molar value.

# Smiles, pEC50
rows = [
    ("CCc1nnc2n1N=C(c1ccc(OC)c(OC)c1)CS2", "~6.03"),
]

###

System: Cystic fibrosis transmembrane conductance regulator (Homo sapiens), P13569 [G551D]
Assay: Potentiation of CFTR G551D mutant (unknown origin) expressed in FRT cells assessed as increase in chloride current at 10 uM in presence of VX-770 by voltage clamp electrophysiology recording relative to VX-770 alone
Format: cell-based
Conditions: filed as activator
Item-by-item account of Activity
Outcome measure: Activity (%)

# Smiles, Unit tag, Reported measurement
rows = [
    ("CCC1=Nn2c(nnc2-c2cccc(Cl)c2)SC1", "%", 162),
    ("CCc1nnc2n1N=C(c1ccc(Cl)c(Cl)c1)CS2", "%", 103),
    ("CC(C)C1=Nn2c(nnc2-c2cc(Cl)ccc2Cl)SC1", "%", 196),
    ("CC1=Nn2c(nnc2-c2cc(Cl)ccc2Br)SC1", "%", 155),
    ("CCC1=Nn2c(nnc2-c2ccc(OC)c(OC)c2)SC1", "%", 107),
    ("CC(C)(C)C1=Nn2c(nnc2-c2ccc(Cl)cc2Cl)SC1", "%", 379),
    ("CCC1=Nn2c(nnc2-c2ccc(Cl)cc2Cl)SC1", "%", 257),
    ("COc1cc(Br)c(-c2nnc3n2N=C(C(C)C)CS3)cc1OC", "%", 106),
    ("COc1ccc(F)c(-c2nnc3n2N=C(C(C)C)CS3)c1", "%", 237),
    ("CCC1=Nn2c(nnc2-c2cc(OC)c(OC)c(OC)c2)SC1", "%", 119),
    ("CCC1=Nn2c(nnc2-c2cccc(Cl)c2Cl)SC1", "%", 129),
    ("CCC1=Nn2c(nnc2-c2ccc(Cl)c(Cl)c2)SC1", "%", 187),
    ("COc1ccc(C2=Nn3c(nnc3-c3ccc(Cl)cc3Cl)SC2)cc1", "%", 142),
    ("CCc1nnc2n1N=C(c1ccc(OC)c(OC)c1)CS2", "%", 204),
    ("FC(F)(F)C1=Nn2c(nnc2-c2ccc(Cl)cc2Cl)SC1", "%", 159),
    ("COc1ccc(Br)c(-c2nnc3n2N=C(C(C)C)CS3)c1", "%", 232),
    ("COc1ccc(OC)c(-c2nnc3n2N=C(C(C)C)CS3)c1", "%", 166),
    ("CCC1=Nn2c(nnc2-c2ccc(Cl)cc2)SC1", "%", 149),
    ("CC1=Nn2c(nnc2-c2ccc(Cl)cc2Cl)SC1", "%", 137),
    ("FC(F)(F)C1=Nn2c(nnc2-c2cc(Cl)ccc2Br)SC1", "%", 171),
    ("CC(C)C1=Nn2c(nnc2-c2ccc(Cl)cc2Cl)SC1", "%", 204),
    ("CCC1=Nn2c(nnc2-c2cc(Cl)ccc2Br)SC1", "%", 118),
    ("CC(C)C1=Nn2c(nnc2-c2cc(Cl)ccc2Br)SC1", "%", 267),
    ("CC(C)(C)C1=Nn2c(nnc2-c2cc(Cl)ccc2Br)SC1", "%", 267),
]
